experiment: AP1 Signaling Pathway (AID 357); details: ME-180 (cervical carcinoma) AP-1-bla reporter, EGF-induced, beta-lactamase ratio, 5 h; at 17.2 µM (top of the series) unless noted;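 also: ME-180 reporter cells stimulated with EGF at its EC50 level; % is scaled to controls: 0 for no effect and ±100 for the full control effect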
Records with an inconclusive call do not appear. Activity calls are given as the source filed them. Calls follow the shape of the dose curve; as a rule, active = well fitted curve in either direction with a large enough effect (not every such curve was filed as active); inconclusive = small, poorly fitted or top-dose-only effect, or another doubt; inactive = flat fitted curve, though single readings scatter.

molecule: Cc1nnc(C)n1/N=C/c1cccn1C
activity change, negative = inhibition: 4.24% (inactive)
--
molecule: O=C(O)CCCC(=O)N1CCN(C(c2ccccc2)c2ccccc2)CC1
activity change, negative = inhibition: 1.43% (inactive)
--
molecule: CCOC(=O)c1c(CNCCN(CC)CC)n(C)c2cc(Br)c(OC)cc12
activity change, negative = inhibition: 5.94% (inactive)
--
molecule: COC(=O)c1cc(OC)c(OC)cc1N
activity change, negative = inhibition: 0.8% (inactive)
--
molecule: Cc1nc(Sc2cccn2C)c(C(F)(F)F)c(=O)[nH]1
activity change, negative = inhibition: -5.32% (inactive)
--
molecule: CCOC(=O)C(C)Oc1nc(Oc2ccccc2)nc(N(C)C)n1 (stereo not drawn)
activity change, negative = inhibition: -9.94% (inactive)
--
molecule: O=C(c1ccccc1)n1c(=S)nc2ccccn21
activity change, negative = inhibition: 4.19% (inactive)
--
molecule: CCCOC(=O)CSC1=C(C#N)C(c2ccccc2OC)C(C#N)C(=O)N1 (stereo not drawn)
activity change, negative = inhibition: -16.4% (inactive)

* * *

system: CP211; assay: qHTS profiling for inhibitors of Plasmodium falciparum proliferation (AID 504749); also: nearly all actives have a fitted effect of over 60% in size; conditions: P. falciparum in erythrocytes, SYBR Green DNA, 72 h; series mostly up to 28.7 µM
Inconclusive results are not listed. Active and inactive are the calls of the source. The call rests on the fitted dose curve; in most records, active means well fitted inhibition curve with a large enough effect; inconclusive means small, poorly fitted or top-dose-only effect; inactive means flat fitted curve, though single readings scatter.
Labels: class 1 (active), class 0 (inactive)

compound: CC(=O)N1CC(O)CC1C(=O)O (stereo not drawn)
discrete label: class 0
--
compound: C=C1C(n2cnc3c(=O)[nH]c(N)nc32)C[C@H](O)[C@H]1CO (stereo partly drawn)
discrete label: class 0
--
compound: CCCC[C@H]1C(=O)N(c2ccccc2)N(c2ccc(O)cc2)C1=O
discrete label: class 0
--
compound: CC(=O)O[C@]1(C(C)=O)CCC2C3CCC4=CC(=O)CCC4(C)C3(F)C(O)CC21C (stereo partly drawn)
discrete label: class 0
--
compound: CC(CN1CC(=O)NC(=O)C1)N1CC(=O)NC(=O)C1 (stereo not drawn)
discrete label: class 0
--
compound: C[C@H](O)[C@@H]1C(=O)N2C(C(=O)O)=C(SCCN=CN)C[C@@H]12
discrete label: class 0
--
compound: C[C@H]1[C@@H](OC(=O)CCC(=O)O)OC2OC3(C)CC[C@H]4[C@H](C)CC[C@@H]1[C@@]24OO3 (stereo partly drawn)
discrete label: class 1
--
compound: C=C1CCC(O)C/C1=C/C=C1\CCC[C@]2(C)[C@@H]([C@H](C)/C=C/[C@H](C)C(C)C)CC[C@@H]12 (stereo partly drawn)
discrete label: class 0

* * *

system: DIV14; assay: qHTS profiling for inhibitors of Plasmodium falciparum proliferation (AID 504749); also: nearly all actives have a fitted effect of over 60% in size; details: P. falciparum in erythrocytes, SYBR Green DNA, 72 h; series mostly up to 28.7 µM
Records with an inconclusive call do not appear. The source made the active and inactive calls. Calls come from the whole dose curve; as a rule, active = well fitted inhibition curve with a large enough effect; inconclusive = small, poorly fitted or top-dose-only effect; inactive = flat fitted curve, though single readings scatter.
Classes used: YES = active, NO = inactive

molecule: CO/N=C(/C(=O)N[C@@H]1C(=O)N2C(C(=O)O)=C(CSc3cnns3)CS[C@H]12)c1csc(N)n1
discrete label: NO

molecule: CCC(C(=O)O)C1OC(C(C)C(O)C(C)C(=O)C(CC)C2OC3(C=CC(O)C4(CCC(C)(C5CCC(O)(CC)C(C)O5)O4)O3)C(C)CC2C)C(C)CC1C (centres undefined)
discrete label: YES

molecule: CCN(CC)C(=O)Nc1ccc(OC[C@H](O)CNC(C)(C)C)c(C(C)=O)c1
discrete label: NO

molecule: COc1cc(/C=C2\CCC/C(=C\c3ccc(O)c(OC)c3)C2=O)ccc1O
discrete label: YES

molecule: C[S+](C)CC[C@H](N)C(=O)O
discrete label: NO

molecule: CC1OC(OC2CCC3(C)C(CCC4C3CC(O)C3(C)C(C5=CC(=O)OC5)CCC43O)C2)CC(O)C1OC1CC(O)C(OC2CC(O)C(OC3OC(CO)C(O)C(O)C3O)C(C)O2)C(C)O1 (centres undefined)
discrete label: NO

molecule: COc1cccc2c1C(=O)c1c(O)c3c(c(O)c1C2=O)C[C@@](O)(C(=O)CO)C[C@@H]3OC1CC(N)C(O)C(C)O1 (some centres undefined)
discrete label: YES

molecule: CC1(C)CC1C(=O)N/C(=C/CCCCSCC(N)C(=O)O)C(=O)O (centres undefined)
discrete label: NO

molecule: C#C[C@@]1(O)CC[C@@H]2[C@H]3CCC4=C/C(=N\O)CC[C@H]4[C@@H]3CC[C@]21CC
discrete label: NO

molecule: CCCCCCCCCCCCCCCC(=O)OCC(COP(=O)(O)OCC[N+](C)(C)C)OC(=O)CCCCCCCCCCCCCCC (centres undefined)
discrete label: NO

molecule: CCCCCOC(=O)Nc1nc(=O)n(C2O[C@H](C)[C@@H](O)[C@@H]2O)cc1F (some centres undefined)
discrete label: NO

molecule: CC12C=CC(=O)C=C1[C@@H](F)CC1C2C(O)CC2(C)C1CC[C@]2(O)C(=O)CO (some centres undefined)
discrete label: NO

molecule: CN(C)CC/C=C1\c2ccccc2COc2ccc(CC(=O)O)cc21
discrete label: NO

molecule: NC(CSSCC(N)C(=O)O)C(=O)O (centres undefined)
discrete label: NO

molecule: CC1=C(c2ccc(NN=C(C#N)C#N)cc2)NNC(=O)C1
discrete label: NO

molecule: OCC(O)C(O)C(O)C(O)CO (centres undefined)
discrete label: NO

molecule: C=C1CC[C@H](O)C/C1=C/C=C1\CCC[C@]2(C)[C@@H]([C@H](C)CC[C@@H](O)C(C)(C)O)CC[C@@H]12
discrete label: YES

molecule: O=C(O)C[CH2][Ge](=[O])[O][Ge](=[O])[CH2]CC(=O)O
discrete label: NO

molecule: C[C@]12CC[C@@H]3c4ccc(O)cc4CC[C@H]3[C@@H]1CCC2OC(=O)CCC1CCCC1 (some centres undefined)
discrete label: NO

molecule: CC1(C)O[C@@H]2C[C@H]3[C@@H]4CCC5=CC(=O)C=C[C@]5(C)[C@H]4C(O)C[C@]3(C)[C@]2(C(=O)CO)O1 (some centres undefined)
discrete label: NO

molecule: Cc1ccc(Nc2ncccc2C(=O)O)cc1C
discrete label: NO

molecule: CO[C@H]1OC2O[C@@]3(C)CC[C@H]4[C@H](C)CC[C@@H]([C@H]1C)[C@@]24OO3 (some centres undefined)
discrete label: YES

molecule: OCC1O[C@@H](O[C@@H]2C(CO)OC(O)C(O)C2O)C(O)C(O)C1O (some centres undefined)
discrete label: NO

molecule: C[C@H]1OC(OC2C(O)[C@@H](O)C(OC3C(O)[C@@H](O)C(O)O[C@@H]3CO)O[C@@H]2CO)[C@H](O)C(O)C1N[C@H]1C=C(CO)[C@@H](O)[C@H](O)C1O (some centres undefined)
discrete label: NO

molecule: C#C[C@]1(O)CC[C@H]2[C@H]3[C@H](CC[C@@]21C)C1=C(CC(=O)CC1)C[C@@H]3C
discrete label: NO

molecule: O=C1C(I)=CC(=C(c2cc(I)c(O)c(I)c2)c2ccccc2C(=O)O)C=C1I
discrete label: NO

molecule: C[C@@H](O)[C@@H]1C(=O)N2C(C(=O)O)=C([C@H]3CCCO3)S[C@H]12
discrete label: NO

molecule: CCCCC(=O)OCC(=O)[C@]1(O)Cc2c(O)c3c(c(O)c2[C@H](OC2CC(NC(=O)C(F)(F)F)C(O)C(C)O2)C1)C(=O)c1c(OC)cccc1C3=O (some centres undefined)
discrete label: YES

molecule: Clc1ccc(CS[C@@H](Cn2ccnc2)c2ccc(Cl)cc2Cl)cc1
discrete label: YES

* * *

system: DFO2036; assay: qHTS profiling for inhibitors of Plasmodium falciparum proliferation (AID 504749); also: nearly all actives have a fitted effect of over 60% in size; details: P. falciparum in erythrocytes, SYBR Green DNA, 72 h; series mostly up to 28.7 µM
Inconclusive results are not listed. Active and inactive are the calls of the source. Calls follow the shape of the dose curve; as a rule, active = well fitted inhibition curve with a large enough effect; inconclusive = small, poorly fitted or top-dose-only effect; inactive = flat fitted curve, though single readings scatter.
Outcome codes: y for active, n for inactive

molecule: C[C@@H]1CCN(C(=O)[C@H](CCCNC(=N)N)NS(=O)(=O)c2cccc3c2NC[C@H](C)C3)[C@@H](C(=O)O)C1
discrete label: n
//
molecule: C=CCN1CC(C(=O)N(CCCN(C)C)C(=O)NCC)CC2c3cccc4[nH]cc(c34)CC21 (configuration not stated)
discrete label: n
//
molecule: COc1cccc(OC)c1C(=O)NC1C(=O)N2C1SC(C)(C)C2C(=O)O (configuration not stated)
discrete label: n
//
molecule: O=C(O)CC(O)CC(O)/C=C/c1c(C2CC2)nc2ccccc2c1-c1ccc(F)cc1 (configuration not stated)
discrete label: n
//
molecule: COc1cc2c(cc1O)CCN[C@@]21CS[C@H]2c3c(OC(C)=O)c(C)c4c(c3C(COC1=O)N1C2C2c3c(cc(C)c(OC)c3O)CC([C@@H]1O)N2C)OCO4 (some centres not stated)
discrete label: y
//
molecule: C=CC1CN2CCC1CC2[C@@H](O)c1ccnc2ccc(OC)cc12 (some centres not stated)
discrete label: y
//
molecule: OC[C@@H]1O[C@](CO)(O[C@H]2O[C@H](CO)[C@@H](O)[C@H](O)[C@H]2O)[C@H](O)[C@H]1O
discrete label: n
//
molecule: Cc1c(C)c2c(c(C)c1O)CCC(C)(CCCC(C)CCCC(C)CCCC(C)C)O2 (configuration not stated)
discrete label: n
//
molecule: C[C@@H]1C(SC2Cn3cnc[n+]3C2)=C(C(=O)[O-])N2C(=O)[C@H]([C@@H](C)O)[C@@H]12 (some centres not stated)
discrete label: n
//
molecule: Oc1cc2cc(CCN3CCN(c4nsc5ccccc45)CC3)c(Cl)cc2[nH]1
discrete label: n
//
molecule: C=C1NC(=O)c2cc(CN(C)c3ccc(C(=O)N[C@@H](CCC(=O)O)C(=O)O)s3)ccc2N1
discrete label: n
//
molecule: Cc1ccc(S(=O)(=O)NC(=O)NC(C)Cc2ccccc2)cc1 (configuration not stated)
discrete label: n
//
molecule: CCC(C(=O)O)C1OC(C(C)C(O)C(C)C(=O)C(CC)C2OC3(C=CC(O)C4(CCC(C)(C5CCC(O)(CC)C(C)O5)O4)O3)C(C)CC2C)C(C)CC1C (configuration not stated)
discrete label: y
//
molecule: COc1ccc(S(=O)(=O)N2c3ccc(Cl)cc3[C@](O)(c3ccccc3Cl)[C@@H]2C(=O)N2CCC[C@H]2C(N)=O)cc1OC
discrete label: n
//
molecule: C=C(CC[C@@H](C)[C@H]1CCC2[C@]1(C)CC[C@]13C[C@@]14CCC(OC(=O)/C=C/c1ccc(O)c(OC)c1)C(C)(C)[C@@H]4CC[C@@]23C)C(C)C (some centres not stated)
discrete label: n
//
molecule: OCC(CO)NC1C[C@](O)(CO)[C@@H](O)[C@H](O)[C@H]1O (some centres not stated)
discrete label: n
//
molecule: CC1OC(OC2C(O)CC(OC3C(O)CC(OC4CCC5(C)C(CCC6C5CCC5(C)C(C7=CC(=O)OC7)CCC65O)C4)OC3C)OC2C)CC(O)C1O (configuration not stated)
discrete label: n
//
molecule: CCCCCCCCCCCCCCCC(=O)OC[C@H](O)[C@H]1OC[C@@H](O)[C@@H]1O
discrete label: n
//
molecule: COc1cc(/C=C2\CCC/C(=C\c3ccc(O)c(OC)c3)C2=O)ccc1O
discrete label: y
//
molecule: Nc1nc(Cl)nc2c1ncn2[C@@H]1O[C@H](CO)[C@H](O)C1F (some centres not stated)
discrete label: n
//
molecule: CC(C)CCCC(C)C1CC(=O)C2=C3CCC4CC(O)CCC4(C)C3CCC21C (configuration not stated)
discrete label: n
//
molecule: O=C1C(I)=CC(=C(c2cc(I)c(O)c(I)c2)c2ccccc2C(=O)O)C=C1I
discrete label: n

These entries and their values trace back to PubChem BioAssay (NCATS).
